# measured target: T1, CTNI quality control recombinant protein (PK2-CTNI-1, 170120, produced by the applicant) (human, UniProt P19429 2-210, limits assumed)
# T1 construct: also called cardiac troponin I
# T1 sequence (P19429 2-210 limits assumed): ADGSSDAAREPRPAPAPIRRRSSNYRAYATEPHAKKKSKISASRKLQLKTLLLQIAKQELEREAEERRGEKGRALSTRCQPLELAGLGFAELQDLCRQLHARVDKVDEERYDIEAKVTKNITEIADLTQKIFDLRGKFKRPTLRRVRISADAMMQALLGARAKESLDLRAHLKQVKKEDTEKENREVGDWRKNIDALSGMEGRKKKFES
# protocol text: indirect ELISA, cTnI coated 1 ug/ml, antibody 1.6 ug/ml
quantity kind: OD 450 nm (reference 630 nm) (OD)
The figure you give is taken to be in OD; do not add the unit.

Study these solved cases before continuing.
{"columns": ["binder", "readout units", "observed value"],
 "data": [
  ["Mutation 2 (antibody, V domains shown, built as for Mutation 1) VH: EVQLQQSGAELVKPGASVKLSCTASGFNLKEYFMHWMKQRTEQGLDWIGRIDPEDAETRYAPEFQGKATITADTSSNTAYLQLSTLTSEDTAVYYCARYYTSYIPFVYWGQGTLVTASA VL: DVVMTQTPLSLSVSLGDQASISCRSSQSIIYSNRHTYLHWYLQKPGQSPKLLIFQISNRFSGVPDRFSGSGSGTDFTLKINRVEAEDLGVYFCSQSTHLPFTFGSGTKLEIKR", "OD", 0.724],
  ["Mutation 3 (antibody, V domains shown, built as for Mutation 1) VH: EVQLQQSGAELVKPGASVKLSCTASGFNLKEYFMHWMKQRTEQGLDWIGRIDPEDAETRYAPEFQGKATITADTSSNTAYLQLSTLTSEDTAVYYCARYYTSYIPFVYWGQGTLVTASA VL: DVVMTQTPLSLSVSLGDQASISCRSSQSIIYSNRHTYLHWYLQKPGQSPKLLIFQISQRFSGVPDRFSGSGSGTDFTLKINRVEAEDLGVYFCSQSTHLPFTFGSGTKLEIKR", "OD", 0.831],
  ["Mutation 4 (antibody, V domains shown, built as for Mutation 1) VH: EVQLQQSGAELVKPGASVKLSCTASGFNLKDYFMHWMKQRTEQGLDWIGRIEPEDAETRYAPEFQGKATITADTSSNTAYLQLSTLTSEDTAVYYCARYYSSYIPFVYWGQGTLVTASA VL: DVVMTQTPLSLSVSLGDQASISCRSSQSIIYSNKHTYLHWYLQKPGQSPKLLIFQISNRFSGVPDRFSGSGSGTDFTLKINRVEAEDLGVYFCSNSTHLPFTFGSGTKLEIKR", "OD", 0.689]
]}

Q. Which OD 450 nm (reference 630 nm) value belongs to Mutation 1 (antibody, V domains shown, No residue numbers are printed, so each chain is built as FR1-CDR1-FR2-CDR2-FR3-CDR3-FR4-constant) VH: EVQLQQSGAELVKPGASVKLSCTASGFNLKDYFMHWMKQRTEQGLDWIGRIDPEDAETRYAPEFQGKATITADTSSNTAYLQLSTLTSEDTAVYYCARYYSSYIPFVYWGQGTLVTASA VL: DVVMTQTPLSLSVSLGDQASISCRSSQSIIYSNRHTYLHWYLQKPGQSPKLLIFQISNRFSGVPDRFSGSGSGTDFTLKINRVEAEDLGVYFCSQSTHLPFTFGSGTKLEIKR ?
A. 0.973

Q. Which OD 450 nm (reference 630 nm) value belongs to Mutation 5 (antibody, V domains shown, built as for Mutation 1) VH: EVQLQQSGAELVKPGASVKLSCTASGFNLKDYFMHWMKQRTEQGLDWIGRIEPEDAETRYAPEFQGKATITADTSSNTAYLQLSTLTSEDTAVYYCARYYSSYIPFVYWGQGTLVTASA VL: DVVMTQTPLSLSVSLGDQASISCRSSQSIIYSNKHTYLHWYLQKPGQSPKLLIFQISQRFSGVPDRFSGSGSGTDFTLKINRVEAEDLGVYFCSNSTHLPFTFGSGTKLEIKR ?
A. 0.721

The measurements presented in this section are drawn from patent US20210340231A1.
